STUDY TARGET: T1, recombinant Plasmodium falciparum circumsporozoite protein (CSP) (Plasmodium falciparum, UniProt Q7K740 21-375)
T1 construct: also called recombinant CSP
T1 sequence (Q7K740 21-375 limits assumed): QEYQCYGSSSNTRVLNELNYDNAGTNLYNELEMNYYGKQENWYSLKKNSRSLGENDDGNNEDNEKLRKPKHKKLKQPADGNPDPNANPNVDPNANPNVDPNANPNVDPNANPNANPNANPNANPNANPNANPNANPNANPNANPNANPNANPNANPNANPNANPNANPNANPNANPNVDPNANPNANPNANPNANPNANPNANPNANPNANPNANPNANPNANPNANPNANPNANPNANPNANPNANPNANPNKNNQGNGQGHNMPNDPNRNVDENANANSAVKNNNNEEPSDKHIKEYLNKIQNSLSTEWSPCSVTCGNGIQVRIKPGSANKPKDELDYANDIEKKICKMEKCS
PROCEDURE DETAILS: SPR, recombinant CSP
Reported kon is given for each of the following binders.
ASSAY METRIC: kon (M⁻¹ s⁻¹)

[
  {
    "BINDER": "AB-000373 (antibody, V domains shown) VH: QVLLVESGGGVVQPGGSLRLSCTASGFTFKNYGMHWVRQAPGKGLEWVAVIWFDGSNEFYADSVEGRFTISRDNSKNTLYLQTNSLRAEDTAVYYCARSYTSSWLGFDFWGQGTLVTVSS VL: DAVMTQTPLSLSVTPGQPASISCKSGQSLLHSDGKTYLYWYLQKPGQSPQLLIYEVSSRFSGVPDRFSGSGSGTDFTLKISRVEAEDVGVYYCMRGIHPRTFGQGTKVEIK",
    "ASSAY METRIC": "kon",
    "OUTPUT UNIT": "M⁻¹ s⁻¹",
    "TEST RESULT": "2.58e+07"
  },
  {
    "BINDER": "AB-000394 (antibody, V domains shown) VH: QAQPVESGGGVVQPGKSLRLSCAASGFTFRNFGMHWVRQAPGKGLEWVAVIWHDGSNQFYADSVEGRFTISRDNSKNTLYLQMDSLRVEDTAMYYCARDRGYSGSWGYFDHWGQGTLVTVSS VL: EIVLTQSPATLSLSPGERATLSCRASQSISDYLAWYQQKPGQAPRLLIYDASFRATGIPARFSGSGSGTDFTLTISSLEPEDFAVYYCQQRSIGFTFGPGTKVDIK",
    "ASSAY METRIC": "kon",
    "OUTPUT UNIT": "M⁻¹ s⁻¹",
    "TEST RESULT": "1.48e+07"
  },
  {
    "BINDER": "AB-000222 (antibody, V domains shown) VH: QVQLVESGGGVVQPGRSLRLSCAASGFTFSNFGMHWVRQAPGKGLEWVAVIWYDGSKKYYADFVKGRFTISRDNSKYMLYLQMTSLGAEDTAIYYCARDIRGAYRVTDGGFDYWGQGALVTVSS VL: QFVLTQPPSVSGAPGQRVTISCTGSSFNIGAGYDVHWYQQLPEKAPKLLIYGSTNRASEVPDRFSGSKSGTSASLAITGLQPEDEADYYCQSYDSSLSGYVFGTGTKVTVL",
    "ASSAY METRIC": "kon",
    "OUTPUT UNIT": "M⁻¹ s⁻¹",
    "TEST RESULT": "7.76e+06"
  },
  {
    "BINDER": "AB-000376 (antibody, V domains shown) VH: QVQLVESGGGVVQPGRSLRLSCTASGFTFSNYGMHWVRQAPGRALEWVAIIWHDGSNKYYADSVKGRFTISRDNSKNTLYLQMNNVRVEDTAVYHCAKVGGFGELYEAFDFWGQGTLVTVSS VL: DIQMTQSPSTLSASVGDRVTITCRASHSISNWLAWYQQKPGKAPRLLIYKASSLNSGVPSRFSGSASGTEFTLTISSLQPDDFATYFCQQYNAYWTFGQGTKVEIK",
    "ASSAY METRIC": "kon",
    "OUTPUT UNIT": "M⁻¹ s⁻¹",
    "TEST RESULT": "4.31e+06"
  },
  {
    "BINDER": "AB001558 (antibody, V domains shown) VH: QVQLVESGGGVVQPGRSLRLSCAASGFTFSSYGMHWVRQAPGKGLEWVAVIWYDGNNKYYVDSVKGRFTISRDNSKNTLYLQMNSLRAEDTAVYYCARDHDADYVEKWGAFDLWGQGTMVTVSS VL: EIVMTQSPATLSVSPGERATLSCRASQSVSSNLAWYQQKPGQAPRLLIYGASARATGIPARFSGSGSGTEFTLTISSLQSEDFAVYYCQQYNNGRTFGQGTKVEIT",
    "ASSAY METRIC": "kon",
    "OUTPUT UNIT": "M⁻¹ s⁻¹",
    "TEST RESULT": 19800
  }
]
